System: HCT-15 colon
protocol-details: NCI-60 one-dose screen, 48 h (100 = growth as untreated, 0 = no growth, -100 = all killed)
applied-conditions: 10 µM
This is part of a sample that, as a whole, favours compounds with a hit. Of some 83,000 tested, about 20% had one in any assay.
growth values, listed per item

{"compound": "Cc1cc(Br)nnc1Br", "growth, %": 102}
{"compound": "CC(C)(C)c1ccc(S(=O)(=O)N[C@H]2CC[C@H]3[C@@H]4CCc5cc(OS(=O)(=O)O)ccc5[C@H]4CC[C@]23C)cc1", "growth, %": 35.4}
{"compound": "C[n+]1c2ccccc2nc2ccccc21", "growth, %": 21.3}
{"compound": "Fc1ccc2[nH]cc(-c3nc(-c4ccsc4)cs3)c2c1", "growth, %": 91.4}
{"compound": "C=CCn1c(SCC(=O)Nc2ccc(C(=O)/C=C/c3ccc(OC)cc3)cc2)nnc1-c1ccc(OC)c(OC)c1", "growth, %": 83.8}
{"compound": "COc1ccc(/C=C2\\CCCC3C2=Nc2ccccc2NC3c2ccc(OC)cc2)cc1 (stereo unspecified)", "growth, %": 93.9}
{"compound": "O=C(O)c1cn(C2CC2)c2cc(N3CCN(C(=O)c4cc(-c5ccc(Cl)cc5)nc5ccccc45)CC3)c(F)cc2c1=O", "growth, %": 90.8}
{"compound": "CS(=O)(=O)c1nccc(-c2c(-c3cccc(O)c3)nc3sccn23)n1", "growth, %": 101}
{"compound": "CC(C)(C)c1nn(-c2ccccc2)c2c1CC1(CN2Cc2ccc(Cl)cc2)C(=O)c2ccccc2C1=O", "growth, %": 88.2}
{"compound": "COc1cc2nc(SCC(=O)Nc3cc(OC)c(OC)c(OC)c3)n(Cc3ccccc3)c(=O)c2cc1OC", "growth, %": 90.2}
{"compound": "COc1ccc(/C=C2/SC(=S)NC2=O)c(OC)c1OC", "growth, %": 75.6}
{"compound": "O=C(CCCNC(=O)c1nc(-c2ccccc2)n(-c2ccccc2)n1)NO", "growth, %": 104}
{"compound": "O=C(CSc1nnc(-c2ccc(Cl)cc2)o1)Nc1ccc(C(=O)/C=C/c2ccc(Cl)cc2)cc1", "growth, %": 107}
{"compound": "COc1cc(-c2nn(-c3cccc(NC(=O)CN4CCOCC4)c3)cc2-c2cccnc2)ccc1Cl", "growth, %": 66.7}
{"compound": "COc1cc(C(=O)/C(C)=C/c2c[nH]c3ccccc23)cc(OC)c1OC", "growth, %": 9.94}
{"compound": "Cc1cc(NC(=O)c2ccc(C)c(Nc3nccc(-c4cccnc4)n3)c2)cc(-n2cnc(C)c2)c1", "growth, %": 58.6}
{"compound": "COc1cc2c3c(n([C@@H]4CCOC4)c(=O)c2cc1OC)-c1cc2c(cc1C3=O)OCO2", "growth, %": 60.5}
{"compound": "O=c1cn[nH]c2ccc(Br)cc12", "growth, %": 104}
{"compound": "c1ccc(CCCCc2ccc3ccccc3n2)cc1", "growth, %": 90.1}
{"compound": "O=C(Nc1ccc2c(O)cc(S(=O)(=O)O)cc2c1)c1ccc([N+](=O)[O-])cc1", "growth, %": 99.3}
{"compound": "COc1cc(NC(=O)C2=C(N3CCOCC3)/C(=C/c3ccc(Cl)cc3)CC2)cc(OC)c1OC", "growth, %": 73}

Values compiled from PubChem BioAssay (NCI).
